What follows is a record of AC50 for Glutamate receptor ionotropic, NMDA 1 (Rattus norvegicus, UniProt P35439).

According to the records, this compound "C=C[C@@]1(C)CC(=O)[C@]2(O)[C@@]3(C)[C@@H](O)CCC(C)(C)[C@@H]3[C@H](O)[C@H](OC(C)=O)[C@@]2(C)O1" displays AC50 of > 30 µM

According to the records, this compound Cc1cccc(N2CC(CO)OC2=O)c1 (centres undefined) displays AC50 of > 30 µM

According to the records, this compound CC(N)C(O)c1ccccc1 (centres undefined) displays AC50 of > 10 µM

According to the records, this compound "CCC[C@H](NC(=O)[C@@H]1[C@H]2CCC[C@H]2CN1C(=O)[C@@H](NC(=O)[C@@H](NC(=O)c1cnccn1)C1CCCCC1)C(C)(C)C)C(=O)C(=O)NC1CC1" displays AC50 of > 10 µM

According to the records, this compound "Cc1cc2cc3c(C)cc(=O)oc3c(C)c2o1" displays AC50 of > 10 µM

According to the records, this compound "CCCCCCCCCCCCCCCCCCCCCC(=O)Nc1ccn([C@@H]2O[C@H](CO)[C@@H](O)[C@@H]2O)c(=O)n1" displays AC50 of > 30 µM

***
According to the records, this compound "C=CCNc1nc(NCC=C)nc(N2CCN(C(c3ccc(F)cc3)c3ccc(F)cc3)CC2)n1" displays AC50 of > 30 µM

According to the records, this compound CCN(CC)C(=O)Nc1ccc(OCC(O)CNC(C)(C)C)c(C(C)=O)c1 (centres undefined) displays AC50 of > 30 µM

According to the records, this compound CC(CCc1ccc(O)cc1)NCCc1ccc(O)c(O)c1 (centres undefined) displays AC50 of > 30 µM
